Recorded values, source PubChem BioAssay (NCI).

Tested on: HOP-62 NSCLC
Test: NCI tumour cell line growth inhibition, 48 h
Entries and their TGI values follow.

molecule | assayed_target | TGI
C(CCCCc1nnc(N2CCCCC2)o1)CCCc1nnc(N2CCCCC2)o1 | HOP-62 NSCLC | > 100 µM
O=C1c2ccccc2-c2c1c1ccccc1c(=O)n2CCN1CCOCC1 | HOP-62 NSCLC | > 100 µM
COc1ccccc1Cc1nc(-c2ccccc2)nn(C2OC(COC(C)=O)C(OC(C)=O)C(OC(C)=O)C2OC(C)=O)c1=S (stereo not given) | HOP-62 NSCLC | 38.3 µM

Next up:
Look up and state reported TGI for CC(=O)C1C(=O)C(=O)N(c2ccccc2C(C)C)C1=O (stereo not given)
> 100 µM

====

Test system: MCF7 breast
Assay: NCI tumour cell line growth inhibition, 48 h
Entries and their TGI values follow.

Illustrative cases are given below, each with its answer.
compound | assayed_target | result
CC1=C(CO)C(=O)O[C@@H]([C@@H](C)[C@H]2CC[C@H]3[C@@H]4C[C@@H](O)[C@@]5(O)CC=CC(=O)[C@]5(C)[C@H]4CC[C@]23C)C1 | MCF7 breast | > 100 µM
O=C(Nc1ccc(Cl)cc1)Nc1ccc(Nc2nncc3ccccc23)cc1 | MCF7 breast | 8.33 µM
CCOc1ccccc1N=Nc1c(C)[nH]n(-c2nc(-c3ccccc3)cs2)c1=O | MCF7 breast | > 100 µM
Clc1nc(Cl)c2ncn(C/C=C/COc3cccc(OC/C=C/Cn4cnc5c(Cl)nc(Cl)nc54)c3)c2n1 | MCF7 breast | > 100 µM
C=C(C)C(O)C(O)c1c(OC)ccc2ccc(=O)oc12 (stereo unspecified) | MCF7 breast | > 100 µM

Look up and state reported TGI for "CCN(C(=S)N[C@H](C(=O)N[C@@H](C)C(=O)OC)C(C)C)c1ccccc1"
> 100 µM

Look up and state reported TGI for "O=c1nc2oc3ccc4ccccc4c3cc-2s1"
> 100 µM

Look up and state reported TGI for "N#Cc1ccccc1-c1nc2c3c(c(N)ccc3n1)C(=O)c1ccccc1-2"
> 100 µM

Look up and state reported TGI for "COc1ccc(OC)c(-c2c(C#N)c(N)nc(N3CCOCC3)c2C#N)c1"
> 100 µM

Look up and state reported TGI for "COc1cccc(-n2ncc3c(N/N=C/c4ccncc4)ncnc32)c1"
> 25 µM

====

System: A549 NSCLC
Assay: NCI tumour cell line growth inhibition, 48 h; in the data active = GI50 below about 0.43 µM; inactive = the rest
Mark one answer only. Choices: True for active, False for inactive

Sample answers from the record:
compound | class_label
Cc1c2c(nn1C)CSCc1cc(n(C)n1)CSc1cc(c3ccccc3c1)OCCCc1c(C(=O)O)n(C)c3c-2c(Cl)ccc13 | False
Nc1[nH]nc2nc(-c3cccs3)cc(C(F)(F)F)c12 | False
C/C=C(\C)C(=O)O[C@H]1C=CC(=O)O[C@@H]1CC[C@H](O)[C@H](C)O | False
COc1ccc(/C=C\c2cc(OC)c(OC)c(OC)c2)cc1OC | True
C[CH2][Sn]([CH2]C)([O]C(=O)C(OC(C)=O)c1ccccc1)[O]C(=O)C(OC(C)=O)c1ccccc1 (stereo not drawn) | False
O=C(Nc1cccc(NC(=O)Nc2cc(C(F)(F)F)ccc2Cl)c1)Nc1cc(C(F)(F)F)ccc1Cl | False
CCCOC(=O)N1CCN(/[N+]([O-])=N/Oc2ccc([N+](=O)[O-])cc2[N+](=O)[O-])CC1 | False

Now look at this one.
Please state the recorded outcome for this compound: "CCCCN(CCCC)c1ccc(C(=N)c2ccc(N(CCCC)CCCC)cc2)cc1"
False

====

System: SK-MEL-28 melanoma
Assay: NCI tumour cell line growth inhibition, 48 h
assay_endpoint: TGI

Illustrative cases are given below, each with its answer.
molecule | assayed_target | TGI
COc1c2c(nc3ccccc13)-c1cc3c(c(=O)n1C2)COC(=O)C3(O)CC(=O)N1CCOCC1 (stereo not drawn) | SK-MEL-28 melanoma | > 98.2 µM
CC1=C2C(=CC(C)(C)C2O)C(=O)C(C)(O)C12CC2 (stereo not drawn) | SK-MEL-28 melanoma | 0.0865 µM
COc1ccc(OC)c2c1C(=O)C1CC1(Br)C2=O (stereo not drawn) | SK-MEL-28 melanoma | > 100 µM
COc1ccc2c(c1)C(=O)c1c-2c(N(C)C)nc2ccccc12 | SK-MEL-28 melanoma | > 100 µM
O=C(COc1ccc(/C=C2\Oc3ccccc3C2=O)cc1)Nc1nc2c(s1)CCCC2 | SK-MEL-28 melanoma | > 68.7 µM

Look up and state reported TGI for COc1ccc(C(SC2C(O)C(CO)OC2n2ccc(N)nc2=O)(c2ccccc2)c2ccc(OC)cc2)cc1 (stereo not drawn)
75.6 µM

Look up and state reported TGI for "C/C=C(\C)C(=O)O[C@H]1C=CC(=O)O[C@@H]1CC[C@H](O)[C@H](C)O"
74.7 µM

Look up and state reported TGI for "O=CN/C=C/c1ccc(O)c(O)c1"
> 100 µM

Look up and state reported TGI for "Cc1c(NC(=O)CSC(=S)N2CCN(Cc3ccccc3)CC2)c(=O)n(-c2ccccc2)n1C"
> 100 µM

Look up and state reported TGI for "O=c1nc2oc3ccc4ccccc4c3cc-2s1"
> 100 µM

====

Tested on: ACHN renal
Assay: NCI tumour cell line growth inhibition, 48 h
assay_endpoint: TGI (µM)
Note: unit µM is implicit; provide only the numeric part.

entry_smiles | quantitative_result
Cc1c2c(nn1C)CSCc1cc(n(C)n1)CSc1cc(c3ccccc3c1)OCCCc1c(C(=O)O)n(C)c3c-2c(Cl)ccc13 | 14

Look up and state reported TGI for "CCOC(=O)Cc1cc(OC)c(OC)cc1/C(Cl)=C(\C=O)c1ccc(OC)c(OC)c1"
55.6

====

Tested on: U251 CNS
Assay: NCI tumour cell line growth inhibition, 48 h
assay_endpoint: TGI

Illustrative cases are given below, each with its answer.
compound | TGI
COc1ccc(C2=NN(c3ccccc3)C[N+](c3ccc(OC)cc3)=N2)cc1 | 49.8 µM
O=c1oc2ccccc2cc1-c1cn2cc(Cl)ccc2n1 | 13.9 µM
Oc1c([Si](c2ccccc2)(c2ccccc2)c2ccccc2)cc2ccccc2c1-c1c(O)c([Si](c2ccccc2)(c2ccccc2)c2ccccc2)cc2ccccc12 | > 100 µM
Cn1cc(C2=C(c3cccc(OCC(O)CO)c3)C(=O)NC2=O)c2ccccc21 (centres undefined) | > 25 µM
COc1ccc(OC)c(-c2c(C#N)c(N)nc(N3CCOCC3)c2C#N)c1 | > 100 µM

Look up and state reported TGI for "CCOC(=O)NC(=O)c1cn(CCCCCCOC(=O)NCCCCCCNC(=O)OCCCCCCn2cc(C(=O)NC(=O)OCC)c(=O)[nH]c2=O)c(=O)[nH]c1=O"
> 100 µM

Look up and state reported TGI for "O=C(COc1ccc(/C=C2\Oc3ccccc3C2=O)cc1)Nc1nc2c(s1)CCCC2"
> 100 µM

Look up and state reported TGI for "C(CCCCc1nnc(N2CCCCC2)o1)CCCc1nnc(N2CCCCC2)o1"
> 100 µM

Look up and state reported TGI for Nc1ncnc2c1nnn2C1CCC(CP(=O)(O)O)C1 (centres undefined)
> 100 µM

Look up and state reported TGI for "O=C(OCCN=c1c2ccccc2ccc2ccccc12)c1ccc([N+](=O)[O-])cc1"
> 100 µM

Look up and state reported TGI for CCCCCC(C)SC1(C(=O)OC)CC(OC(C)=O)C(NC(C)=O)C([C@H](OC(C)=O)[C@@H](COC(C)=O)OC(C)=O)O1 (some centres undefined)
> 100 µM

Look up and state reported TGI for COc1ccc(NC(C)=O)cc1N1C(=O)/C(=C\c2cc(OC)c(OC)c(OC)c2)SC1c1ccccc1 (centres undefined)
> 100 µM

Look up and state reported TGI for O=c1ccn(CC2(CO)CC(Cc3ccccc3)C2)c(=O)[nH]1 (centres undefined)
> 100 µM

Look up and state reported TGI for "COc1ccc2c(c1)C(=O)c1c-2c(N(C)C)nc2ccccc12"
> 100 µM

====

Test system: SNB-75 CNS
Assay: NCI tumour cell line growth inhibition, 48 h
Entries and their TGI values follow.
Note: unit µM is implicit; provide only the numeric part.

compound | measurement_units | TGI
CC[C@H](CO)Nc1nc(NCc2ccccc2)n2ncc(C(C)C)c2n1 | µM | 3.33

Next up:
Look up and state reported TGI for N#Cc1c(-c2ccc(Cl)cc2)c2c(n(C3OC(CO)C(O)C(O)C3O)c1=S)CCC2 (centres undefined)
76.3

====

System: NCI-H522 lung
Assay: NCI tumour cell line growth inhibition, 48 h; in the data active = GI50 below about 0.43 µM; inactive = the rest
Mark one answer only. Choices: active, inactive

Sample answers from the record:
compound | class_label
O=C(Nc1ccc(Cl)cc1)Nc1ccc(Nc2nncc3ccccc23)cc1 | inactive
COc1ccc(C2SC(C)C(=O)N2NC(=O)C(O)c2ccccc2)cc1OC (stereo not given) | inactive
C[CH2][Sn]([CH2]C)([O]C(=O)C(OC(C)=O)c1ccccc1)[O]C(=O)C(OC(C)=O)c1ccccc1 (stereo not given) | inactive
O=C(Nc1cccc(NC(=O)Nc2cc(C(F)(F)F)ccc2Cl)c1)Nc1cc(C(F)(F)F)ccc1Cl | inactive

Please state the recorded outcome for this compound: "CCCCN(CCCC)c1ccc(C(=N)c2ccc(N(CCCC)CCCC)cc2)cc1"
active
